Target: human CB2 (hCB2) receptor (Homo sapiens, UniProt P34972)
Construct: expressed in transfected cells; host or cells: CHO-K1
Sequence (P34972 whole entry): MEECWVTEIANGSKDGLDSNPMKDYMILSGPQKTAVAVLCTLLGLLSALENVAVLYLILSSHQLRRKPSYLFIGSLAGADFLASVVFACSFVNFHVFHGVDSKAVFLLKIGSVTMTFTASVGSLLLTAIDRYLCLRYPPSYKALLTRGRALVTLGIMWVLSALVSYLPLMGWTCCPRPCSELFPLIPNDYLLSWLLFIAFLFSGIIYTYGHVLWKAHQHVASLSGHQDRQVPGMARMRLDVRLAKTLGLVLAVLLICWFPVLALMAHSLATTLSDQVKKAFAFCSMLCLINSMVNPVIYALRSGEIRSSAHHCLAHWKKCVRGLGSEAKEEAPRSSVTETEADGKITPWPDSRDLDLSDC
Experiment: Inhibition of forskolin-activated cAMP production upon activation of hCB2 (HTRF), CHO-K1 cells
Assay type: cell-based
Settings: hCB2-CHO-K1 cells, forskolin-activated cAMP, pEC50=-log(EC50); read-out: CB2 pEC50 (converted)

compound	systemName	EC50
COc1ccc(S(=O)(=O)c2ccc3c(c2)nc(C(C)(C)C)n3CC2CCOCC2)nn1 [Co. No. 11]	human CB2 (hCB2) receptor (Homo sapiens, UniProt P34972)	1.26 nM
CO[C@H]1CC[C@@H](Cn2c(C(C)(C)C)nc3cc(S(=O)(=O)c4ccnc(F)c4)ccc32)CC1 [Co. No. 162]	human CB2 (hCB2) receptor (Homo sapiens, UniProt P34972)	0.363 nM
CC(C)(C)c1nc2cc(S(=O)(=O)c3ccnc(F)c3)ccc2n1CC1CCC(=O)CC1 [Co. No. 134]	human CB2 (hCB2) receptor (Homo sapiens, UniProt P34972)	1.38 nM
CC(C)(C)c1nc2cc(S(=O)(=O)c3ccc(C(=O)N4CCOCC4)o3)ccc2n1CC1CCOCC1 [Co. No. 80]	human CB2 (hCB2) receptor (Homo sapiens, UniProt P34972)	4.17 nM
CC(C)(C)c1nc2cc(S(=O)(=O)c3ccc(-c4ncon4)s3)ccc2n1CC1CCOCC1 [Co. No. 48]	human CB2 (hCB2) receptor (Homo sapiens, UniProt P34972)	0.575 nM
CC(=O)N1CCC(Cn2c(C(C)(C)C)nc3cc(S(=O)(=O)c4cc[n+]([O-])cc4)ccc32)CC1 [Co. No. 143]	human CB2 (hCB2) receptor (Homo sapiens, UniProt P34972)	17 nM
CC(C)(C)c1nc2cc(S(=O)(=O)c3ccc(C(C)(C)O)s3)ccc2n1CC1CCOCC1 [Co. No. 53]	human CB2 (hCB2) receptor (Homo sapiens, UniProt P34972)	3.72 nM
CC(C)(C)c1nc2cc(S(=O)(=O)c3ccnc(OCCCN)c3)ccc2n1CC1CCOCC1 [Co. No. 131]	human CB2 (hCB2) receptor (Homo sapiens, UniProt P34972)	15.8 nM
CC(C)(C)c1nc2cc(S(=O)(=O)c3ccc(C(N)=O)cn3)ccc2n1CC1CCOCC1 [Co. No. 33]	human CB2 (hCB2) receptor (Homo sapiens, UniProt P34972)	3.09 nM
CC(=O)NCCNc1cc(S(=O)(=O)c2ccc3c(c2)nc(C(C)(C)C)n3CC2CCOCC2)ccn1 [Co. No. 123]	human CB2 (hCB2) receptor (Homo sapiens, UniProt P34972)	4.17 nM
CCC(CC)Cn1c(C(C)(C)C)nc2cc(S(=O)(=O)c3ccnc(F)c3)ccc21 [Co. No. 147]	human CB2 (hCB2) receptor (Homo sapiens, UniProt P34972)	0.955 nM
CC(C)(C)c1nc2cc(S(=O)(=O)c3ccnc(/C=C\Cl)c3)ccc2n1CC1CCOCC1 [Co. No. 124]	human CB2 (hCB2) receptor (Homo sapiens, UniProt P34972)	14.5 nM
CC(C)(C)c1nc2cc(S(=O)(=O)c3ccnc(F)c3)ccc2n1CC1CCOC(=O)CC1 (stereo not shown) [Co. No. 145]	human CB2 (hCB2) receptor (Homo sapiens, UniProt P34972)	3.24 nM
